Tested on: Fusarium oxysporum
procedure summary: Fungicidal activity Fusarium oxysporum assessed as inhibition of mycelium growth at 50 mg/L at 24 degC measured after 2 days
experimental conditions: 48 h
Mark 1 for reported inhibition at 50 µg/mL of 10% or greater; mark 0 for anything smaller.

{"compound": "O=C(NC(=O)c1c(F)cccc1F)OCc1ccc(-c2ccc(F)cc2)o1", "label": 1}
{"compound": "O=C(NC(=O)c1ccccc1Cl)OCc1ccc(-c2ccccc2Br)o1", "label": 1}
{"compound": "O=C(NC(=O)c1ccccc1Cl)OCc1ccc(-c2ccc(F)cc2)o1", "label": 0}
{"compound": "O=C(NC(=O)c1c(Cl)cccc1Cl)OCc1ccc(-c2cccc(Cl)c2)o1", "label": 1}
{"compound": "O=C(NC(=O)c1c(F)cccc1F)OCc1ccc(-c2ccc(Br)cc2)o1", "label": 0}
{"compound": "O=C(NC(=O)c1c(Cl)cccc1Cl)OCc1ccc(-c2ccccc2F)o1", "label": 0}
{"compound": "O=C(NC(=O)c1c(F)cccc1F)OCc1ccc(-c2ccc(Cl)cc2)o1", "label": 1}
{"compound": "O=C(NC(=O)c1ccccc1Cl)OCc1ccc(-c2cccc(Cl)c2)o1", "label": 0}
{"compound": "O=C(NC(=O)c1c(Cl)cccc1Cl)OCc1ccc(-c2ccccc2Cl)o1", "label": 1}
{"compound": "O=C(NC(=O)c1c(Cl)cccc1Cl)OCc1ccc(-c2ccc(F)cc2)o1", "label": 1}
{"compound": "O=C(NC(=O)c1ccccc1Cl)OCc1ccc(-c2ccccc2F)o1", "label": 0}
{"compound": "O=C(NC(=O)c1c(Cl)cccc1Cl)OCc1ccc(-c2ccc(Br)cc2)o1", "label": 1}
{"compound": "O=C(NC(=O)c1c(F)cccc1F)OCc1ccc(-c2ccccc2Cl)o1", "label": 1}
{"compound": "O=C(NC(=O)c1c(Cl)cccc1Cl)OCc1ccc(-c2ccc(Cl)cc2)o1", "label": 1}
{"compound": "O=C(NC(=O)c1c(F)cccc1F)OCc1ccc(-c2cccc(F)c2)o1", "label": 0}
{"compound": "O=C(NC(=O)c1c(F)cccc1F)OCc1ccc(-c2ccc(F)cc2F)o1", "label": 1}
{"compound": "O=C(NC(=O)c1c(Cl)cccc1Cl)OCc1ccc(-c2ccc(F)cc2F)o1", "label": 1}
{"compound": "O=C(NC(=O)c1c(F)cccc1F)OCc1ccc(-c2ccccc2F)o1", "label": 1}
{"compound": "O=C(NC(=O)c1ccccc1Cl)OCc1ccc(-c2ccc(Cl)cc2)o1", "label": 1}
{"compound": "O=C(NC(=O)c1c(Cl)cccc1Cl)OCc1ccc(-c2ccccc2Br)o1", "label": 1}
{"compound": "O=C(NC(=O)c1c(F)cccc1F)OCc1ccc(-c2cccc(Cl)c2)o1", "label": 1}
{"compound": "O=C(NC(=O)c1ccccc1Cl)OCc1ccc(-c2cccc(F)c2)o1", "label": 1}
{"compound": "O=C(NC(=O)c1c(F)cccc1F)OCc1ccc(-c2ccccc2Br)o1", "label": 1}
{"compound": "O=C(NC(=O)c1c(Cl)cccc1Cl)OCc1ccc(-c2cccc(F)c2)o1", "label": 0}
{"compound": "O=C(NC(=O)c1ccccc1Cl)OCc1ccc(-c2ccccc2Cl)o1", "label": 0}
{"compound": "COC(=O)NC(=S)Nc1ccccc1NC(=S)NC(=O)OC [THIOPHANATE METHYL]", "label": 1}

Just for reference, ChEMBL document CHEMBL3045454 is where these values come from.
